Assay: Firocoxib pharmacokinetics in sows following IM administration (Example 2)
Assay type: in vivo, swine
Conditions: female, Yorkshire×Landrace, pig, plasma, im, 0.5 mg/kg, sows, 0.5 mg/kg IM, mean; read-out: AUC0-last
Measure Name: AUC(0-t) (ng·h/mL)
Respond with the bare value in ng·h/mL.

Please report the recorded AUC(0-t) for CC1(C)OC(=O)C(OCC2CC2)=C1c1ccc(S(C)(=O)=O)cc1 [firocoxib] .
1530

* * *

Experiment: in vivo
Design: species or system swine
Conditions: both sexes, pig, im, 2 mg/kg
Measure Name: Tmax (h)
# output: bare number, implied unit h

Reported Tmax for CC1(C)OC(=O)C(OCC2CC2)=C1c1ccc(S(C)(=O)=O)cc1 [firocoxib] : what is it?
24

* * *

Experiment: in vivo
Design: species or system swine
Details: both sexes, pig, im, 0.5 mg/kg, AUClast
Measure Name: AUC(0-t) (ng·h/mL)
Number in ng·h/mL, nothing else.

I'd like to know its AUC(0-t). The compound in question is CC1(C)OC(=O)C(OCC2CC2)=C1c1ccc(S(C)(=O)=O)cc1
635

* * *

Test: in vivo
Set-up: species or system swine
Details: both sexes, pig, 1 mg/kg, Piglet AUClast
Experimental: Blood samples for firocoxib determination were collected from the sows and three piglets/litter (two male and one female piglet at each time point) at 0, 2, 4, 6, 8, 12, 24, 48, 72, 96, and 120 h post-drug injection to the sow. […] Twelve calibration spikes were prepared in blank porcine plasma in the concentration range of 1-5,000 ng/mL for the samples from the sows. The samples from the piglets were analyzed using a narrower range of calibration spikes of 1-500 ng/mL. […]
Measure Name: AUC(0-t) (ng·h/mL)
Give the number; ng·h/mL is assumed, so skip it.

Any idea what AUC(0-t) was measured for CC1(C)OC(=O)C(OCC2CC2)=C1c1ccc(S(C)(=O)=O)cc1 ?
2470

* * *

Test: in vivo
Parameters: species or system swine
Settings: both sexes, pig, im, 0.5 mg/kg, AUC 0-24 h
Measure Name: AUC(0-t) (ng·h/mL)
Give the number; ng·h/mL is assumed, so skip it.

Need AUC(0-t) of CC1(C)OC(=O)C(OCC2CC2)=C1c1ccc(S(C)(=O)=O)cc1 , thanks.
176

* * *

Assay: in vivo
Design: species or system swine
Settings: both sexes, pig, im, 1 mg/kg
Measure Name: AUC(0-inf) (ng·h/mL)
Give just the numeric value; ng·h/mL need not be written.

Param item = CC1(C)OC(=O)C(OCC2CC2)=C1c1ccc(S(C)(=O)=O)cc1 [firocoxib] ; retrieve measured AUC(0-inf).
3180

* * *

Test: Firocoxib pharmacokinetics in sows following IM administration (Example 2)
Assay type: in vivo, swine
Settings: female, Yorkshire×Landrace, pig, plasma; sows, 2.0 mg/kg IM, mean
Measure Name: MRT inf

# input compound: CC1(C)OC(=O)C(OCC2CC2)=C1c1ccc(S(C)(=O)=O)cc1 ; wanted: its MRT inf
36.8 h

* * *

Assay: Firocoxib pharmacokinetics in sows following IM administration (Example 2)
Assay type: in vivo, swine
Settings: female, Yorkshire×Landrace, pig, plasma; sows, 1.5 mg/kg IM, mean
Measure Name: MRT inf (h)
The response must be a number in h with no trailing unit.

If you can, please state the reported MRT inf value of CC1(C)OC(=O)C(OCC2CC2)=C1c1ccc(S(C)(=O)=O)cc1 .
33.5

* * *

Assay: in vivo
Parameters: species or system swine
Details: both sexes, pig, im, 1 mg/kg, AUC0-24h
Measure Name: AUC(0-t) (µg·h/mL)
Your answer is read as µg·h/mL, so omit the unit and give the number.

Name the recorded AUC(0-t) for CC1(C)OC(=O)C(OCC2CC2)=C1c1ccc(S(C)(=O)=O)cc1 [firocoxib] .
0.407

* * *

Assay: in vivo
Parameters: species or system swine
Settings: both sexes, pig, im, 2 mg/kg
Measure Name: Cmax (µg/mL)
Give the value in µg/mL but do not write µg/mL after it.

I would be grateful if you could share the reported Cmax for CC1(C)OC(=O)C(OCC2CC2)=C1c1ccc(S(C)(=O)=O)cc1 .
0.044

* * *

Test: in vivo
Parameters: species or system swine
Conditions: both sexes, pig, 1 mg/kg
Measure Name: AUC(0-inf) (ng·h/mL)
Numeric only. Scale: ng·h/mL

Recorded AUC(0-inf) of CC1(C)OC(=O)C(OCC2CC2)=C1c1ccc(S(C)(=O)=O)cc1 , please.
3180

* * *

Experiment: Firocoxib pharmacokinetics in sows following IM administration (Example 2)
Assay type: in vivo, swine
Details: female, Yorkshire×Landrace, pig, plasma, im, 0.5 mg/kg, sows, 0.5 mg/kg IM, mean; read-out: AUCINF
Measure Name: AUC(0-inf) (µg·h/mL)
// units = µg·h/mL; emit number, no label

Which AUC(0-inf) value is on record for CC1(C)OC(=O)C(OCC2CC2)=C1c1ccc(S(C)(=O)=O)cc1 [firocoxib] ?
1.59

* * *

Assay: in vivo
Design: species or system swine
Settings: both sexes, pig, im, 1 mg/kg, MRT0-last
Measure Name: MRT last (h)
// note: answer is a bare numeric in h

Param item = CC1(C)OC(=O)C(OCC2CC2)=C1c1ccc(S(C)(=O)=O)cc1 [firocoxib] ; retrieve measured MRT last.
55.4

* * *

Assay: Firocoxib pharmacokinetics in sows following IM administration (Example 2)
Assay type: in vivo, swine
Conditions: female, Yorkshire×Landrace, pig, plasma; sows, 1.0 mg/kg IM, mean; read-out: VZ/F
Measure Name: Vd/F
Please answer in the form of a number followed by its unit of measurement.

# query: Vd/F of entry CC1(C)OC(=O)C(OCC2CC2)=C1c1ccc(S(C)(=O)=O)cc1 [firocoxib]
7.82 L/kg

* * *

Assay: Firocoxib pharmacokinetics in sows following IM administration (Example 2)
Assay type: in vivo, swine
Details: female, Yorkshire×Landrace, pig, plasma, im, 2 mg/kg, sow dose 2.0 mg/kg (Table 7); read-out: Sow AUC∞
Measure Name: AUC(0-inf) (µg·h/mL)
Just the number in µg·h/mL, nothing appended.

Returns the measured AUC(0-inf) for the input compound. Input: CC1(C)OC(=O)C(OCC2CC2)=C1c1ccc(S(C)(=O)=O)cc1
13.7

* * *

Experiment: Firocoxib pharmacokinetics in sows following IM administration (Example 2)
Format: in vivo, swine
Details: female, Yorkshire×Landrace, pig, plasma, im, 1.5 mg/kg, sows, 1.5 mg/kg IM, mean; read-out: AUC0-last
Measure Name: AUC(0-t) (ng·h/mL)
Respond numerically; units are ng·h/mL and should not be typed.

Entry CC1(C)OC(=O)C(OCC2CC2)=C1c1ccc(S(C)(=O)=O)cc1 : reported AUC(0-t) = ?
8320

* * *

Assay: Pharmacokinetics of firocoxib in a single sow after IM injection (Example 1)
Type: in vivo, swine
Conditions: female, crossbred, pig, plasma, im, 1.5 mg/kg, 1.5 mg/kg IM, read-out: AUCextra
Measure Name: AUC (µg·h/mL)
The reply should contain only the number, in µg·h/mL.

Need AUC, item CC1(C)OC(=O)C(OCC2CC2)=C1c1ccc(S(C)(=O)=O)cc1
3.68

* * *

Assay: in vivo
Design: species or system swine
Details: both sexes, pig, im, 2 mg/kg
Measure Name: AUC(0-inf)

Fill in: AUC(0-inf) of CC1(C)OC(=O)C(OCC2CC2)=C1c1ccc(S(C)(=O)=O)cc1 is ___
3650 ng·h/mL

* * *

Test: Firocoxib pharmacokinetics in sows following IM administration (Example 2)
Assay type: in vivo, swine
Settings: female, Yorkshire×Landrace, pig, plasma; sows, 1.5 mg/kg IM, mean; read-out: VZ/F
Description: Protocols involved intramuscular injection of Firocoxib to lactating sows at either 0.5, 1.0, 1.5 or 2 mg/kg, and analysis in sows and select piglets at 21 days post treatment. […] A sample size of 4 sows was selected to describe the pharmacokinetics of firocoxib. […] In cases where the calculated dose volume exceeded 20-mL, the remaining volume was administered via IM injection in the left lateral neck muscle. […]
Measure Name: Vd/F (L/kg)
Field: numeric (L/kg). Do not append units.

Dear colleague, I am looking for the recorded Vd/F of the following compound: CC1(C)OC(=O)C(OCC2CC2)=C1c1ccc(S(C)(=O)=O)cc1
9.12

* * *

Assay: Firocoxib pharmacokinetics in sows following IM administration (Example 2)
Type: in vivo, swine
Conditions: female, Yorkshire×Landrace, pig, plasma; sows, 2.0 mg/kg IM, mean
Description: Protocols involved intramuscular injection of Firocoxib to lactating sows at either 0.5, 1.0, 1.5 or 2 mg/kg, and analysis in sows and select piglets at 21 days post treatment. […] A sample size of 4 sows was selected to describe the pharmacokinetics of firocoxib. […] In cases where the calculated dose volume exceeded 20-mL, the remaining volume was administered via IM injection in the left lateral neck muscle. […]
Measure Name: Tmax (h)
// return numeric value only (unit: h, not printed)

Entry under review: CC1(C)OC(=O)C(OCC2CC2)=C1c1ccc(S(C)(=O)=O)cc1 . Reported Tmax?
4.5
